# Target entity: UniProt:P16257
# Sequence (P16257 whole entry, looked up): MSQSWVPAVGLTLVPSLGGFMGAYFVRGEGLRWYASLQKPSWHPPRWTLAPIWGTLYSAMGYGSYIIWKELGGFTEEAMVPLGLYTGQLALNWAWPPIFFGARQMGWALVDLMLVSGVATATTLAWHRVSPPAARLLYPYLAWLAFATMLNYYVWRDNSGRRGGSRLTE
pIC50: −log10 of the molar value.
Property measured: pIC50

These recorded examples may help you get a feel for the data.
I am curious: what pIC50 value has been reported for O=c1c2ccc[nH]c-2cn1-c1ccc(Cl)cc1 ? < 6.00

I am curious: what pIC50 value has been reported for CCCN(CCC)C(=O)Cc1c2[nH]c3ccccc3cc-2c(=O)n1-c1ccc(Cl)cc1 ? < 6.00

In the following, a different compound is considered.
I am curious: what pIC50 value has been reported for CCCCCCN(CCCCCC)C(=O)Cc1c2[nH]c3ccccc3cc-2c(=O)n1-c1ccc(Cl)cc1 ? < 6.00
